B1: KRT34 (parent)
chain: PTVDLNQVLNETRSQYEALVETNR

Variants of: B1
Procedure summary: protein stability index of a GFP-peptide fusion (GPS, HEK-293T) (PSI 1-6); higher = more stable;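 further: lentivirally expressed fusions sorted by FACS into six bins by GFP to DsRed ratio, PSI derived from sequencing read proportions per bin multiplied by bin number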
Study conditions: c terminus: a fixed tail appended
Label 1 (yes) for high-side protein stability index (at or above 4) and 0 (no) for low-side protein stability index (below it).

> print(dat)
    mutant.designation  group.label
 1                L19A      1 (yes)
 2                V20M       0 (no)
 3                 P1I       0 (no)
 4                 N6P      1 (yes)
 5                R24K      1 (yes)
 6                 T2M       0 (no)
 7                Q15H       0 (no)
 8                 P1R       0 (no)
 9                 Q7R       0 (no)
10                L19G      1 (yes)
11                E21P      1 (yes)
12                V20E       0 (no)
13                R13W       0 (no)
14                 V8H       0 (no)
15                E17R       0 (no)
16                 N6S       0 (no)
17                Y16G      1 (yes)
18                Q15S      1 (yes)
19                Q15V       0 (no)
20                T12A       0 (no)
21                N10I       0 (no)
22                 P1Q       0 (no)
23                N10D       0 (no)
24                E17C       0 (no)
25                 V3P      1 (yes)
26                 Q7F       0 (no)
27                L19T      1 (yes)
28                Q15M       0 (no)
29                 P1A       0 (no)
30                 L5H       0 (no)
31                R13H       0 (no)
32                 V8A       0 (no)
33                N10K       0 (no)
34                E11K       0 (no)
35                 T2G      1 (yes)
36                 V3F       0 (no)
37                 P1F       0 (no)
38                 V8R      1 (yes)
39                V20H      1 (yes)
40                E21R       0 (no)
41                N10M       0 (no)
42                N10Y       0 (no)
43                E21N       0 (no)
44                Y16P      1 (yes)

// data source = the supplement of paper PMC10567573
